# test protocol: NCI Yeast Anticancer Drug Screen. Data for the rad14 strain (AID 159);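 note: 0% = growth of vehicle-treated control cultures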
# measurement context: S. cerevisiae rad14 strain growth inhibition; at 3.7 µM; active compounds read high
This is part of a sample that, as a whole, favours compounds with a hit. Of some 79,000 tested, about 15% had one in any assay.
Tag: t if measured growth inhibition is not below 20%, f if it is.

[
  {
    "compound": "C[C@]12CCC3[C@@H](CC[C@@H]4c5nonc5CC[C@]34C)C1CCC2=O (some centres not stated)",
    "cat": "t"
  },
  {
    "compound": "C[CH2][Sn]1([CH2]C)[O]C2C(O)OC(CO)C(O)C2[O]1 (configuration not stated)",
    "cat": "f"
  },
  {
    "compound": "CN(C)CCC(C(=O)C(Br)Br)(c1ccccc1)c1ccccc1",
    "cat": "t"
  },
  {
    "compound": "CSc1ccccc1[As](C)C",
    "cat": "t"
  },
  {
    "compound": "OC(c1ccc(Br)cc1)C(Cl)(Cl)Cl (configuration not stated)",
    "cat": "f"
  },
  {
    "compound": "COc1ccc([N+]2=NC(c3ccc([N+](=O)[O-])cc3)=NN(c3ccccc3)C2)cc1",
    "cat": "f"
  },
  {
    "compound": "O=C1c2ccccc2C(=O)C(Cl)C1Cl (configuration not stated)",
    "cat": "f"
  },
  {
    "compound": "BrCC[N+]12CC[N+](CCBr)(CC1)C2",
    "cat": "f"
  },
  {
    "compound": "O=C(Nc1cc(Cl)ccc1Cl)C(Cl)(Cl)Cl",
    "cat": "f"
  },
  {
    "compound": "CC1=C[C@H]2O[C@@H]3C[C@H]4OC(=O)/C=C\\C=C\\C(C(C)O)OCC(O)C(C)CC(=O)OC[C@@]2(C[C@@H]1O)[C@]4(C)[C@@]31CO1 (some centres not stated)",
    "cat": "t"
  },
  {
    "compound": "Br[Se]c1ccccn1",
    "cat": "t"
  },
  {
    "compound": "CCOP(=S)(S)OCC.[Pd]",
    "cat": "f"
  }
]

* * *

# test protocol: NCI Yeast Anticancer Drug Screen. Data for the mec2-1 strain (AID 157)
# measurement context: S. cerevisiae mec2-1 strain, at 50.0 µM
The panel holds about 79,000 compounds, 15% with a hit somewhere; the sample as a whole holds those more often. Calls of active or inactive are those of the source. Cut-off read from the data, not from the text of the source: active = growth inhibition above about 70%; inactive = the rest.
Possible outcomes: active, inactive

[
  {
    "molecule": "N#C[S-].[Nd+3].c1cnc2c(c1)ccc1cccnc12.c1cnc2c(c1)ccc1cccnc12.c1cnc2c(c1)ccc1cccnc12",
    "cat": "active"
  },
  {
    "molecule": "CC(=O)O.CC(=O)[O-].CC(=O)[O-].[Co+3].[NH-]CC[NH-].[NH-]CC[NH-]",
    "cat": "inactive"
  },
  {
    "molecule": "CCC[CH2][Sn]1([CH2]CCC)[O]Cc2nc(C)ccc2[O]1",
    "cat": "active"
  },
  {
    "molecule": "N#CC(C#N)=Cc1ccc2c(c1)OC(Cl)O2 (stereo not given)",
    "cat": "inactive"
  },
  {
    "molecule": "COc1cc(C=Nc2ccc(-c3csc(COc4ccccc4)n3)cc2)ccc1N(CCCl)CCCl",
    "cat": "active"
  }
]

* * *

# test protocol: NCI Yeast Anticancer Drug Screen. Data for the mec2-1 strain (AID 157)
# measurement context: S. cerevisiae mec2-1 strain, at 3.7 µM, active compounds read high
This is part of a sample that, as a whole, favours compounds with a hit. Of some 79,000 tested, about 15% had one in any assay.
This section presents molecules with their documented growth inhibition values.
metric: growth inhibition (%)

[
  {
    "molecule": "O=S(=O)(O)/C(=C\\c1ccccc1)c1ccccc1 (tested in a mixture with another compound)",
    "metric": "growth inhibition",
    "val": -2
  },
  {
    "molecule": "O=C1c2ccccc2C(=O)C(Cl)C1Cl (stereo unspecified)",
    "metric": "growth inhibition",
    "val": 22
  },
  {
    "molecule": "CC1(C)N=C(N)N=C(N)N1c1cccc(N)c1.[Sn]",
    "metric": "growth inhibition",
    "val": 6
  },
  {
    "molecule": "O=P(Oc1ccc(Cl)cc1)(Oc1ccc(Cl)cc1)N1CC1",
    "metric": "growth inhibition",
    "val": -1
  },
  {
    "molecule": "O=c1oc2ccccc2c(O)c1C(c1ccc2ccccc2c1)c1c(O)c2ccccc2oc1=O",
    "metric": "growth inhibition",
    "val": 15
  },
  {
    "molecule": "C[C@]12CCC(=O)C=C1CC[C@@H]1C2CC[C@@]2(C)C1CC[C@@H]2OC(=O)C12OC1CCC2=O (stereo partly specified)",
    "metric": "growth inhibition",
    "val": 14
  },
  {
    "molecule": "O=c1c2ccccc2[se]n1-c1cccnc1",
    "metric": "growth inhibition",
    "val": 20
  },
  {
    "molecule": "COc1cc([C@@H]2c3cc4c(cc3C[C@@H]3COC(=O)C32)OCO4)cc(OC)c1O (stereo partly specified)",
    "metric": "growth inhibition",
    "val": 17
  },
  {
    "molecule": "O=[N+]([O-])c1ccc(C=Cc2ccccc2)cc1.[C-]#[O+].[C-]#[O+].[C-]#[O+].[Cr]",
    "metric": "growth inhibition",
    "val": 1
  },
  {
    "molecule": "NCCc1ccc(OCc2ccccc2)c(OCc2ccccc2)c1",
    "metric": "growth inhibition",
    "val": 3
  },
  {
    "molecule": "C[CH2][Sn]1([CH2]C)[O]C2C(O)OC(CO)C(O)C2[O]1 (stereo unspecified)",
    "metric": "growth inhibition",
    "val": 4
  },
  {
    "molecule": "C[C@@]12CCC(=O)C=C1CC[C@H]1C2=CC[C@]2(C)C1CC[C@@]2(C)O (stereo partly specified)",
    "metric": "growth inhibition",
    "val": 10
  },
  {
    "molecule": "COc1cccc2c1C(=O)c1c(O)c3c(c(O)c1C2=O)C[C@@](O)(C(C)=O)C[C@@H]3OC1CC(N)C(OC2CC(O)C(O)C(C)O2)C(C)O1 (stereo partly specified)",
    "metric": "growth inhibition",
    "val": -20
  },
  {
    "molecule": "Cc1cc[n+](C2=C(Nc3cccc(C(F)(F)F)c3)C(=O)c3ccccc3C2=O)cc1",
    "metric": "growth inhibition",
    "val": 4
  },
  {
    "molecule": "COc1cc(C2c3cc4c(cc3[C@@H](Nc3ccc(N)cc3)C3COC(=O)[C@H]23)OCO4)cc(OC)c1O (stereo partly specified)",
    "metric": "growth inhibition",
    "val": 89
  },
  {
    "molecule": "CCN(CC)CCBr",
    "metric": "growth inhibition",
    "val": 0
  },
  {
    "molecule": "COc1cc(O)c2c(O)c3c(c4c2c1[C@]1(C4)C(C)=CCCC1(C)C)[C@H](O)[C@@]1(O)CC(=O)C(C(N)=O)=C(O)[C@@]1(O)C3=O",
    "metric": "growth inhibition",
    "val": 87
  },
  {
    "molecule": "c1ccc2cc3n[se]nc3cc2c1",
    "metric": "growth inhibition",
    "val": 2
  },
  {
    "molecule": "Cc1nc2ccccc2cc1C[N+]12CN3CN(CN(C3)C1)C2",
    "metric": "growth inhibition",
    "val": 4
  },
  {
    "molecule": "O=C1C2CC(Cl)C(SSC3CC4C(=O)N(SC(Cl)(Cl)C(Cl)Cl)C(=O)C4CC3Cl)CC2C(=O)N1SC(Cl)(Cl)C(Cl)Cl (stereo unspecified)",
    "metric": "growth inhibition",
    "val": 91
  },
  {
    "molecule": "BrCC[N+]12CC[N+](CCBr)(CC1)C2",
    "metric": "growth inhibition",
    "val": 5
  }
]

* * *

# test protocol: NCI Yeast Anticancer Drug Screen. Data for the mlh1 strain (AID 171);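 note: 0% = growth of vehicle-treated control cultures of the same strain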
# measurement context: S. cerevisiae mlh1 strain growth inhibition; at 100.0 µM
Compounds without any hit were thinned out: in the full panel of roughly 79,000, 15% have a hit. Activity calls are given as the source filed them. Rule as the data show it: active = growth inhibition above about 70%; inactive = the rest.
Possible outcomes: active, inactive

[
  {
    "compound": "CC(Cc1ccccc1)N(C)Cc1nc(C2CCC([N+](=O)[O-])O2)no1 (configuration not stated)",
    "cat": "inactive"
  },
  {
    "compound": "CS(=O)(=O)OCCN(CCOS(C)(=O)=O)c1ccc(C=O)cc1",
    "cat": "active"
  },
  {
    "compound": "O=C(O)CCCOc1cc(Cl)c(Cl)cc1Cl",
    "cat": "active"
  },
  {
    "compound": "Nc1nc(-c2ccccc2)c(-c2ccccc2)[se]1",
    "cat": "inactive"
  },
  {
    "compound": "CCC1(OC(=O)CN)C(=O)OCc2c1cc1n(c2=O)Cc2cc3ccccc3nc2-1 (configuration not stated)",
    "cat": "active"
  },
  {
    "compound": "Cn1cnc(N)c1C(=N)[Se]",
    "cat": "active"
  },
  {
    "compound": "CC1=C(CO)C2=C(C)C3(CC3)[C@@](C)(O)C(=O)C2=C1",
    "cat": "inactive"
  }
]
